Reference for the values: patent US20170037028A1

Molecular target: GLUT1 (Homo sapiens, UniProt P11166)
Sequence (P11166 whole entry, species assumed): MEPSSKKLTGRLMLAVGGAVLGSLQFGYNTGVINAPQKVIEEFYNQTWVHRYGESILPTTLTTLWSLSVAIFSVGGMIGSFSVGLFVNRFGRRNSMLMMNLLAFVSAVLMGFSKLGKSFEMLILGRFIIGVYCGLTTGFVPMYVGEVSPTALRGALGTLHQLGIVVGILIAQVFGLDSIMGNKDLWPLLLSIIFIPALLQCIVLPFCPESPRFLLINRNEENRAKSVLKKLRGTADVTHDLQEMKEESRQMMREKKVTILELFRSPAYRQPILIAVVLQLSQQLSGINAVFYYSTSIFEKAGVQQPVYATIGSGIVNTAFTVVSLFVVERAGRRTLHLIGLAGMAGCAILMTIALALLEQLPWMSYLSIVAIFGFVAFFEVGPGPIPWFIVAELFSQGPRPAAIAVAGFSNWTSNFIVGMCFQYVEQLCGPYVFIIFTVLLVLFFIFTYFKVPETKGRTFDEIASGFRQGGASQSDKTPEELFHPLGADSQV
Test: Indirect measurement of GLUT1 activity by quantification of intracellular ATP levels (glucose induced ATP increase)
Format: cell-based
Design: endogenous in cells; host or cells: DLD1 or CHO-K1
Details: read-out: IC50 regarding glucose induced ATP increase (GLUT1 inhibition)
METRIC: IC50 (nM)

1) Cc1c(NC(=O)c2cc(C(N)=O)nc3ccc(Br)cc23)c(C(F)(F)F)nn1Cc1c(F)cc(C#N)cc1F = 4.5
2) Cc1c(NC(=O)c2cc(C(N)=O)nc3cccc(F)c23)c(C(F)(F)F)nn1Cc1ccc(F)cc1F = 5.4
3) COc1cc(C(=O)Nc2c(C)nn(Cc3csc(N4CCOCC4)n3)c2C)c2ccccc2n1 = 893
4) Cc1nn(Cc2ccc(C(=O)N(C)C)cc2)c(C)c1NC(=O)c1cc(C(F)(F)F)nc2ccc(Br)cc12 = 85.3
5) Cc1nn(Cc2ccc(C(C)C)cc2)c(C)c1NC(=O)c1cc(C(N)=O)nc2cc(F)ccc12 = 3.8
6) Cc1nn(Cc2ccc(C(=O)NCCc3ccccn3)cc2)c(C)c1NC(=O)c1cc(C(F)(F)F)nc2ccc(Br)cc12 = 105
7) COC(=O)c1ccc(Cn2nc(C)c(NC(=O)c3cc(C(F)(F)F)nc4ccc(Br)cc34)c2C)cc1 = 8.3
